- Tested on: Principal Bile Acids in Liver
- Assay Remarks: Bile acid composition of liver tissue after oral administration (GC-MS)
- Format: in vivo, Sprague-Dawley rats
- Assay Conditions: oral gavage 250 mg/day, 4 days
Measured Quantity: Δ^22-UDCA percent of hepatic bile acids
Number first, unit second.

IN: Param item = C[C@H](CCC(=O)O)[C@H]1CC[C@H]2[C@@H]3[C@@H](O)C[C@@H]4C[C@H](OS(=O)(=O)O)CC[C@]4(C)[C@H]3CC[C@]12C [UDCA-3S, ursodeoxycholic acid 3-sulfate] ; retrieve measured Δ^22-UDCA percent of hepatic bile acids.
OUT: 8.6%

IN: Can you look up the measured Δ^22-UDCA percent of hepatic bile acids of C[C@H](CCC(=O)O)[C@H]1CC[C@H]2[C@@H]3[C@@H](OS(=O)(=O)O)C[C@@H]4C[C@H](O)CC[C@]4(C)[C@H]3CC[C@]12C [UDCA-7S, ursodeoxycholic acid 7-sulfate] for me?
OUT: 2.6%

IN: What value of Δ^22-UDCA percent of hepatic bile acids has been reported for the following compound? C[C@H](CCC(=O)O)[C@H]1CC[C@H]2[C@@H]3[C@@H](O)C[C@@H]4C[C@H](O)CC[C@]4(C)[C@H]3CC[C@]12C [UDCA, reference compound]
OUT: 11.3%

IN: I would be grateful if you could share the reported Δ^22-UDCA percent of hepatic bile acids for C[C@H](CCC(=O)O)[C@H]1CC[C@H]2[C@@H]3[C@@H](OS(=O)(=O)O)C[C@@H]4C[C@H](OS(=O)(=O)O)CC[C@]4(C)[C@H]3CC[C@]12C [UDCA-DS, ursodeoxycholic acid 3,7-disulfate] .
OUT: 2.0%

###

- Assay Remarks: Urinary excretion after i.v. infusion
- Format: in vivo, Sprague-Dawley rats
- Assay Conditions: rat, urine, iv, read-out: Proportion of administered dose appearing in urine
Measured Quantity: dose excreted (%)
Give the value, in units of %, as a plain number.

Here are 3 compounds together with their reported answers.
compound="C[C@H](CCC(=O)O)[C@H]1CC[C@H]2[C@@H]3[C@@H](OS(=O)(=O)O)C[C@@H]4C[C@H](O)CC[C@]4(C)[C@H]3CC[C@]12C [UDCA-7S, ursodeoxycholic acid 7-sulfate]" measured_quantity="dose excreted" unit=% reported_value=0.9
compound="C[C@H](CCC(=O)O)[C@H]1CC[C@H]2[C@@H]3[C@@H](O)C[C@@H]4C[C@H](OS(=O)(=O)O)CC[C@]4(C)[C@H]3CC[C@]12C [UDCA-3S, ursodeoxycholic acid 3-sulfate]" measured_quantity="dose excreted" unit=% reported_value=2.8
compound="C[C@H](CCC(=O)O)[C@H]1CC[C@H]2[C@@H]3[C@@H](O)C[C@@H]4C[C@H](O)CC[C@]4(C)[C@H]3CC[C@]12C [UDCA, reference compound]" measured_quantity="dose excreted" unit=% reported_value=0.01

IN: What measured dose excreted goes with C[C@H](CCC(=O)O)[C@H]1CC[C@H]2[C@@H]3[C@@H](OS(=O)(=O)O)C[C@@H]4C[C@H](OS(=O)(=O)O)CC[C@]4(C)[C@H]3CC[C@]12C [UDCA-DS, ursodeoxycholic acid 3,7-disulfate] ?
OUT: 2.2

###

- Test system: Principal Bile Acids in Colon
- Assay Remarks: Bile acid composition of colon after oral administration (GC-MS)
- Assay type: in vivo, Sprague-Dawley rats
- Assay Conditions: oral gavage 250 mg/day, 4 days; mean ± SEM
Measured Quantity: Chenodeoxycholic acid mass in colon (mg)
Use mg as the unit, but write only the number.

molecule="C[C@H](CCC(=O)O)[C@H]1CC[C@H]2[C@@H]3[C@@H](OS(=O)(=O)O)C[C@@H]4C[C@H](OS(=O)(=O)O)CC[C@]4(C)[C@H]3CC[C@]12C [UDCA-DS, ursodeoxycholic acid 3,7-disulfate]" measured_quantity="Chenodeoxycholic acid mass in colon" reported_value=0.07
molecule="C[C@H](CCC(=O)O)[C@H]1CC[C@H]2[C@@H]3[C@@H](O)C[C@@H]4C[C@H](OS(=O)(=O)O)CC[C@]4(C)[C@H]3CC[C@]12C [UDCA-3S, ursodeoxycholic acid 3-sulfate]" measured_quantity="Chenodeoxycholic acid mass in colon" reported_value=0.06
molecule="C[C@H](CCC(=O)O)[C@H]1CC[C@H]2[C@@H]3[C@@H](OS(=O)(=O)O)C[C@@H]4C[C@H](O)CC[C@]4(C)[C@H]3CC[C@]12C [UDCA-7S, ursodeoxycholic acid 7-sulfate]" measured_quantity="Chenodeoxycholic acid mass in colon" reported_value=0.06

Shifting focus to the molecule that follows.
IN: Please report the recorded Chenodeoxycholic acid mass in colon for C[C@H](CCC(=O)O)[C@H]1CC[C@H]2[C@@H]3[C@@H](O)C[C@@H]4C[C@H](O)CC[C@]4(C)[C@H]3CC[C@]12C [UDCA, reference compound] .
OUT: 0.05

###

- Tested on: bile acids secreted in bile
- Assay Remarks: Biliary bile acid composition during i.v. infusion (GC-MS)
- Assay type: in vivo, Sprague-Dawley rats
- Assay Conditions: 20-30 mins
Reported values of Relative % composition in bile: MCA for individual entries
Please reply with the bare figure in % and do not write the unit itself.

Consider the worked cases shown below.
compound="C[C@H](CCC(=O)O)[C@H]1CC[C@H]2[C@@H]3[C@@H](O)C[C@@H]4C[C@H](OS(=O)(=O)O)CC[C@]4(C)[C@H]3CC[C@]12C [UDCA-3S, ursodeoxycholic acid 3-sulfate]" measured_quantity="Relative % composition in bile: MCA" unit=% reported_value=4.9
compound="C[C@H](CCC(=O)O)[C@H]1CC[C@H]2[C@@H]3[C@@H](O)C[C@@H]4C[C@H](O)CC[C@]4(C)[C@H]3CC[C@]12C [UDCA, reference compound]" measured_quantity="Relative % composition in bile: MCA" unit=% reported_value=1.0
compound="C[C@H](CCC(=O)O)[C@H]1CC[C@H]2[C@@H]3[C@@H](OS(=O)(=O)O)C[C@@H]4C[C@H](O)CC[C@]4(C)[C@H]3CC[C@]12C [UDCA-7S, ursodeoxycholic acid 7-sulfate]" measured_quantity="Relative % composition in bile: MCA" unit=% reported_value=1.3

IN: Return reported Relative % composition in bile: MCA; argument: C[C@H](CCC(=O)O)[C@H]1CC[C@H]2[C@@H]3[C@@H](OS(=O)(=O)O)C[C@@H]4C[C@H](OS(=O)(=O)O)CC[C@]4(C)[C@H]3CC[C@]12C [UDCA-DS, ursodeoxycholic acid 3,7-disulfate]
OUT: 3.2

###

- System: Principal Bile Acids in Colon
- Assay Remarks: Bile acid composition of colon after oral administration (GC-MS)
- Format: in vivo, Sprague-Dawley rats
- Assay Conditions: oral gavage 250 mg/day, 4 days; mean ± SEM
Recorded UDCA mass in colon for the following molecules
# unit: mg | format: bare number

Reference set, count: 3
molecule="C[C@H](CCC(=O)O)[C@H]1CC[C@H]2[C@@H]3[C@@H](OS(=O)(=O)O)C[C@@H]4C[C@H](OS(=O)(=O)O)CC[C@]4(C)[C@H]3CC[C@]12C [UDCA-DS, ursodeoxycholic acid 3,7-disulfate]" reported_value=0.20
molecule="C[C@H](CCC(=O)O)[C@H]1CC[C@H]2[C@@H]3[C@@H](OS(=O)(=O)O)C[C@@H]4C[C@H](O)CC[C@]4(C)[C@H]3CC[C@]12C [UDCA-7S, ursodeoxycholic acid 7-sulfate]" reported_value=1.28
molecule="C[C@H](CCC(=O)O)[C@H]1CC[C@H]2[C@@H]3[C@@H](O)C[C@@H]4C[C@H](O)CC[C@]4(C)[C@H]3CC[C@]12C [UDCA, reference compound]" reported_value=0.31

IN: Any idea what UDCA mass in colon was measured for C[C@H](CCC(=O)O)[C@H]1CC[C@H]2[C@@H]3[C@@H](O)C[C@@H]4C[C@H](OS(=O)(=O)O)CC[C@]4(C)[C@H]3CC[C@]12C [UDCA-3S, ursodeoxycholic acid 3-sulfate] ?
OUT: 0.05

###

- Test system: Principal Bile Acids in Liver
- Assay Remarks: Bile acid composition of liver tissue after oral administration (GC-MS)
- Type: in vivo, Sprague-Dawley rats
- Assay Conditions: oral gavage 250 mg/day, 4 days
Measured Quantity: UDCA percent of hepatic bile acids

compound="C[C@H](CCC(=O)O)[C@H]1CC[C@H]2[C@@H]3[C@@H](O)C[C@@H]4C[C@H](O)CC[C@]4(C)[C@H]3CC[C@]12C [UDCA, reference compound]" reported_value=30.0%
compound="C[C@H](CCC(=O)O)[C@H]1CC[C@H]2[C@@H]3[C@@H](OS(=O)(=O)O)C[C@@H]4C[C@H](OS(=O)(=O)O)CC[C@]4(C)[C@H]3CC[C@]12C [UDCA-DS, ursodeoxycholic acid 3,7-disulfate]" reported_value=1.7%

IN: Endpoint output: UDCA percent of hepatic bile acids of C[C@H](CCC(=O)O)[C@H]1CC[C@H]2[C@@H]3[C@@H](O)C[C@@H]4C[C@H](OS(=O)(=O)O)CC[C@]4(C)[C@H]3CC[C@]12C [UDCA-3S, ursodeoxycholic acid 3-sulfate] . Value?
OUT: 15.6%

IN: For the compound shown here, C[C@H](CCC(=O)O)[C@H]1CC[C@H]2[C@@H]3[C@@H](OS(=O)(=O)O)C[C@@H]4C[C@H](O)CC[C@]4(C)[C@H]3CC[C@]12C [UDCA-7S, ursodeoxycholic acid 7-sulfate] , give the reported UDCA percent of hepatic bile acids.
OUT: 1.8%

Source of measurements: patent US5763435A
